These data points were gathered from patent EP0212404A1.

A set of molecules tested on Staph.aureus SG511, with measured MIC:
Provide only the numeric value, understood in µg/mL.

// returns MIC for C[C@@H](O)[C@H]1C(=O)N2C(C(=O)O)=C(c3cccc(C(N)=O)c3)S[C@H]12 [Example 3-CONH2] with Staph.aureus SG511; value = 0.05

Known value: Staph.aureus SG511 MIC of the molecule CSc1cccc(C2=C(C(=O)O)N3C(=O)[C@H]([C@@H](C)O)[C@H]3S2)c1 [Example 3-SCH3] equals 0.1

====

Tested on: Staph.aureus 285
measurementLabel: MIC (µg/mL)
Answer format: numeric, µg/mL implied, no suffix.

Example entries begin here.
Simply: C[C@@H](O)[C@H]1C(=O)N2C(C(=O)O)=C(c3ccc(Cl)cc3)S[C@H]12 , Staph.aureus 285, MIC = 0.1

Entry C[C@@H](O)[C@H]1C(=O)N2C(C(=O)O)=C(c3cccc(C(N)=O)c3)S[C@H]12 under Staph.aureus 285 had MIC of 0.1

Hey, Staph.aureus 285 data for CC(O)C1C(=O)N2C(C(=O)O)=C(c3ccc(C(N)=O)cc3)SC12 (stereo not shown) : MIC came out at 0.1

For the compound C[C@@H](O)[C@H]1C(=O)N2C(C(=O)O)=C(c3cccc(NC=O)c3)S[C@H]12 , the measured MIC on Staph.aureus 285 was 0.19

Entry C[C@@H](O)[C@H]1C(=O)N2C(C(=O)O)=C(c3ccccc3)S[C@H]12 , Staph.aureus 285 data, MIC value: 0.19

Lab entry: Staph.aureus 285 assay, compound CSc1ccc(C2=C(C(=O)O)N3C(=O)[C@H]([C@@H](C)O)[C@H]3S2)cc1 , MIC = 0.19

Staph.aureus 285 assay, compound C[C@@H](O)[C@H]1C(=O)N2C(C(=O)O)=C(c3ccc(F)cc3)S[C@H]12 , recorded MIC = 0.19

Summary: COc1ccc(C2=C(C(=O)O)N3C(=O)[C@H]([C@@H](C)O)[C@H]3S2)cc1 , Staph.aureus 285, MIC = 0.19

Continuing:
Record CSc1cccc(C2=C(C(=O)O)N3C(=O)[C@H]([C@@H](C)O)[C@H]3S2)c1 / Staph.aureus 285, MIC recorded as 0.19

Log: Staph.aureus 285, compound C[C@@H](O)[C@H]1C(=O)N2C(C(=O)O)=C(c3ccc(NC=O)cc3)S[C@H]12 , MIC = 0.1

====

Test system: Kl.aerog. 1522E
Assay: agar dilution test (MIC)
Format: cell-based
Settings: read-out: Minimum Inhibitory Concentration (MIC)
measurementLabel: MIC (µg/mL)
Field: numeric (µg/mL). Do not append units.

Kindly note the recorded MIC for COc1ccc(C2=C(C(=O)O)N3C(=O)[C@H]([C@@H](C)O)[C@H]3S2)cc1 [Example 4-OCH3] , which is 12.5

Record C[C@@H](O)[C@H]1C(=O)N2C(C(=O)O)=C(c3ccccc3)S[C@H]12 [H] . Reported MIC: 1.56

What the record says about C[C@@H](O)[C@H]1C(=O)N2C(C(=O)O)=C(c3ccc(Cl)cc3)S[C@H]12 [Example 4-Cl] : MIC is 12.5

Others:
For reference, reported MIC for CSc1cccc(C2=C(C(=O)O)N3C(=O)[C@H]([C@@H](C)O)[C@H]3S2)c1 [Example 3-SCH3] stands at 6.25
